meta.source: patent US20250340574A1

Biological target: CFTR (F508del/MF-HBE cells) (Homo sapiens, UniProt P13569, DEL508-508)
Construct: human bronchial epithelial (HBE) cells derived from CF subjects heterozygous for F508del and a minimal function CFTR mutation (F508del/MF-HBE); endogenous in cells; host or cells: Primary human bronchial epithelial cells from CF subjects (F508del/MF genotype), differentiated at an air-liquid interface
Sequence (P13569 with tags, fused parts or gaps DEL508-508): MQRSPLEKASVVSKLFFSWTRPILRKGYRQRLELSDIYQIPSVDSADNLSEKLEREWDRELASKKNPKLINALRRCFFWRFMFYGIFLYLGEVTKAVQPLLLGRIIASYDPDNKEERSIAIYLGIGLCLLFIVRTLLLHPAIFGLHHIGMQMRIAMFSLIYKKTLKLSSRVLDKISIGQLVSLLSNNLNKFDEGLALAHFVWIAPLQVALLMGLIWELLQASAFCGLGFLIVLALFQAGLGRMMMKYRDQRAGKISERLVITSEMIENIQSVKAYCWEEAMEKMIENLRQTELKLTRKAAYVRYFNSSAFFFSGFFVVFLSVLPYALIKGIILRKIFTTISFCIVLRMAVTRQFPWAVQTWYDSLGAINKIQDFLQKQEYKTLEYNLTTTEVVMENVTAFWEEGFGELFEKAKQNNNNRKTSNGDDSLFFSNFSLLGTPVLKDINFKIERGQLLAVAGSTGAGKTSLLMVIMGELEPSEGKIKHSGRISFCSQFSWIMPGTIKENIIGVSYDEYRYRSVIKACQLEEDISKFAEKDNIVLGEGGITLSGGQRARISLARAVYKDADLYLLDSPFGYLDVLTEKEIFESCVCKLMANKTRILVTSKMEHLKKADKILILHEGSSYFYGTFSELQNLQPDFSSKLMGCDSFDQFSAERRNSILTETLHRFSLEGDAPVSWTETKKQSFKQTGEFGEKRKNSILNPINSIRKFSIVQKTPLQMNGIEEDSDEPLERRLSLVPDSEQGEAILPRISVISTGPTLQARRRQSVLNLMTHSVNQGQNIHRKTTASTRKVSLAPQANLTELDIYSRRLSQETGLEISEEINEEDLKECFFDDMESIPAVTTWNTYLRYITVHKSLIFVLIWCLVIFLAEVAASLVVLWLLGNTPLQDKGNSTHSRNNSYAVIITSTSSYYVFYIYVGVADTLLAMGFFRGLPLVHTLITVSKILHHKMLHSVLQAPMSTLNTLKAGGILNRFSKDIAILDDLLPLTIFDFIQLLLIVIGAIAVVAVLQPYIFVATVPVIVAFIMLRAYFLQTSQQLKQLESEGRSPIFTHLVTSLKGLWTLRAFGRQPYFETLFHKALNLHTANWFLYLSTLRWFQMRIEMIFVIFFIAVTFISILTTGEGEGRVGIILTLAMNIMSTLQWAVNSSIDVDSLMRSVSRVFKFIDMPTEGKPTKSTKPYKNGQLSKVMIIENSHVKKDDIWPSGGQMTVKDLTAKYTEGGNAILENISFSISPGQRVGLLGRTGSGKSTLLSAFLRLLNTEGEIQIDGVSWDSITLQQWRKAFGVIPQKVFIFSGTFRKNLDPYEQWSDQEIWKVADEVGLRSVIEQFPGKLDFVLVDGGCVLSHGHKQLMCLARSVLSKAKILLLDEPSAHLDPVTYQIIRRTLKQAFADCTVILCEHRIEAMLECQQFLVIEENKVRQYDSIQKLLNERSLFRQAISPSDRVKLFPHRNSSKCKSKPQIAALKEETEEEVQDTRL
Assay: Ussing chamber assay of CFTR-mediated short-circuit currents, Assay C (0.026 μM to 25 μM, 6 concentrations)
Assay type: cell-based
Details: with 33 nM potentiator and 18 μM Tezacaftor, 18-24 hours, 20% human serum, read-out: C Max activity (%)
Protocol: Ussing chamber experiments were performed using human bronchial epithelial (HBE) cells derived from CF subjects heterozygous for F508del and a minimal function CFTR mutation (F508del/MF-HBE) and cultured as previously described (Neuberger T, Burton B, Clark H, Van Goor F Methods Mol Biol 2011:741:39-54). […] The activity of the CFTR corrector compounds on the CFTR-mediated ISC was determined in Ussing chamber studies as described above. […]
MEASURED ATTRIBUTE: Emax

compound="Cc1cccc(CC2CCCC2)c1-c1nc2nc(c1C)OC[C@@H](CC(C)(C)C)N(Cc1cnc3cc(C(C)C)n(C)c3n1)C(=O)c1cccc(c1)S(=O)(=O)N2 (atropisomer, axis not shown; (P)) [Compound I-196]" result="> 60%"

// switching to the query compound
Query: Can you share its Emax? I mean this compound: Cc1cccc(OC(C)C)c1-c1nc2nc(c1C)OC[C@@H](CC(C)(C)C)N(Cc1cnc3cc(C(C)(C)C)n(C)c3n1)C(=O)c1cccc(c1)S(=O)(=O)N2 (atropisomer, axis not shown) [Compound I-260]
Reply: > 60%
